# experiment.description: Solubility of compound at pH 7
# Assay type: physicochemical
# measurement.conditions: buffer
measure.name: log10(solubility) (log10 of the value in µM)
Heads up: the numbers are on a log10 scale; they represent solubility in µM.

{"compound": "Cn1c(=O)n(CC(C)(C)C)c2ccc(N3CC4CCC3CN4c3ncccn3)nc21 (racemic)", "measure.name": "log10(solubility)", "reported.value": 1.26}
{"compound": "Cn1c(=O)n(CC(C)(C)C)c2ccc(N3CC4CCC3CN4C(=O)c3ccccc3)nc21 (racemic)", "measure.name": "log10(solubility)", "reported.value": 1.82}
{"compound": "Cn1c(=O)n(CC(C)(C)C)c2ccc(N3C[C@@H]4CC[C@H]3CN4C(=O)c3ccon3)nc21", "measure.name": "log10(solubility)", "reported.value": 2.10}
{"compound": "Cn1c(=O)n(CC(C)(C)C)c2ccc(N3C[C@@H]4CC[C@H]3CN4C(=O)c3csnn3)nc21", "measure.name": "log10(solubility)", "reported.value": 2.06}
{"compound": "Cc1cc(CN2CC3CCC2CN3c2ccc3c(n2)n(C)c(=O)n3CC(C)(C)C)no1 (racemic)", "measure.name": "log10(solubility)", "reported.value": 2.27}

// next item, log10(solubility) requested
The value of log10(solubility) measured for the compound Cn1c(=O)n(CC(C)(C)C)c2ccc(N3CC4CCC3CN4C(=O)c3cccnc3)nc21 (racemic) turned out to be 2.26

###

# experiment.description: Oral bioavailability in Beagle dog at 1 mg/kg administered as single dose
# Format: ADME, organism-based, Canis lupus familiaris
# measurement.conditions: in vivo
measure.name: bioavailability

The value of bioavailability measured for the compound Cn1c(=O)n(CC(C)(C)C)c2ccc(N3C[C@@H]4CC[C@H]3CN4C(=O)c3ccon3)nc21 turned out to be 24%

###

# subject.of.test: Metabotropic glutamate receptor 6 (Homo sapiens, UniProt O15303)
# Sequence (O15303 whole entry): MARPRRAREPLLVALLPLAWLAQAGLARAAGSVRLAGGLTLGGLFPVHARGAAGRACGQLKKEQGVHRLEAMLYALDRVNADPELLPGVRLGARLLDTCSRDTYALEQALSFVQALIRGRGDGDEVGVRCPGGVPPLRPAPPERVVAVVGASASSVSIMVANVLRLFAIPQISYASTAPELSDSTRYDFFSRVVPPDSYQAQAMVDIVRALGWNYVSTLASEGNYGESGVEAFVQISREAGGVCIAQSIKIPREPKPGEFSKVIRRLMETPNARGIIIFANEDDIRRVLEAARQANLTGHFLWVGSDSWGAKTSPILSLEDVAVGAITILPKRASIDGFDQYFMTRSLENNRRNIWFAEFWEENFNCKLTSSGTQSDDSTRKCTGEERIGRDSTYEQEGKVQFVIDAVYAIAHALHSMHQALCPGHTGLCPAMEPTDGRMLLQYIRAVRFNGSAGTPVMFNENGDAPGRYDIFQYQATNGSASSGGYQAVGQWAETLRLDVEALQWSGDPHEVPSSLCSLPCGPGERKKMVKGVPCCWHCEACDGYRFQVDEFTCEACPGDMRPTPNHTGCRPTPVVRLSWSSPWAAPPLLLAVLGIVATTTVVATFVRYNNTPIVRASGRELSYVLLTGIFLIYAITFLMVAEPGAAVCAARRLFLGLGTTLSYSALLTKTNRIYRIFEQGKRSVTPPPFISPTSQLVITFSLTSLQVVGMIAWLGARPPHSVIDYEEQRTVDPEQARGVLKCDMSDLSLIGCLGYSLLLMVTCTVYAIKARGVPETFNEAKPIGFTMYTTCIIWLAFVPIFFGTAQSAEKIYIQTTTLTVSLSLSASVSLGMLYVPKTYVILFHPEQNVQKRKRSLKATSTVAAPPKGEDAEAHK
# experiment.description: Positive allosteric modulation of mGlu6 receptor (unknown origin)
pEC50: −log10 of the molar value.
measure.name: pEC50

# example entries with known answers
{"compound": "Cn1c(=O)n(CC(C)(C)C)c2ccc(C3=C[C@@H]4CC[C@H]3CN4C(=O)c3ccon3)nc21", "reported.value": "< 4.52"}
{"compound": "Cn1c(=O)n(CC(C)(C)C)c2ccc(N3CCCCC3)nc21", "reported.value": "< 4.52"}

The measured pEC50 that Cn1c(=O)n(CC(C)(C)C)c2ccc(N3CCCC4CCCCC43)nc21 (mixture of isomers) showed for Metabotropic glutamate receptor 6 (Homo sapiens, UniProt O15303) is < 4.52
